# concentration at 4 h values compiled below
# Assay Procedure: Drug uptake in rat liver at 5 mg/kg, iv after 4 hrs
# Format: ADME, organism-based
# Design: dose 5 mg/kg, route intravenous
# Condition Context: read-out: Drug uptake
Metric: concentration at 4 h (µM)

Compound	Metric	Measurement Units	Readout Number
COc1ccc2c(c1)C1CC1(C(=O)N1C[C@@H](C)N(C(C)=O)[C@@H](C)C1)Cn1c-2c(C2CCCCC2)c2ccc(C(=O)NS(=O)(=O)N(C)C)cc21 (mixture of isomers)	concentration at 4 h	µM	0.126
COc1ccc2c(c1)C1CC1(C(=O)N1CC(O)C1)Cn1c-2c(C2CCCCC2)c2ccc(C(=O)NS(=O)(=O)N(C)C)cc21 (racemic)	concentration at 4 h	µM	5
COc1ccc2c(c1)C1CC1(C(=O)N1CC(C)(O)C1)Cn1c-2c(C2CCCCC2)c2ccc(C(=O)NS(=O)(=O)N(C)C)cc21 (racemic)	concentration at 4 h	µM	9.6
COc1ccc2c(c1)C1CC1(C(=O)N1C[C@@H](C)N(C)[C@@H](C)C1)Cn1c-2c(C2CCCCC2)c2ccc(C(=O)NS(=O)(=O)N(C)C)cc21 (mixture of isomers)	concentration at 4 h	µM	1.86
